These data points were gathered from patent US6603046B1.

test_protocol: Absorption study in rats, oral, serum concentration (Example 20)
Type: in vivo
measurement_setup: rat, serum, po, 1000 mg per kg, 4 hours after oral administration; 1000 mg per kg as printed
measure: concentration at 4 h (ng/mL)
Answers are plain numbers, in ng/mL.

Lookup: Provide one value: measured concentration at 4 h of `C=CC(C)(C)c1cc(/C=C/C(=O)c2ccc(O)cc2)c(OC)cc1O`
Found: 140

====

test_protocol: Serum concentration in rabbits after intravenous administration (Example 20)
Format: in vivo
measurement_setup: rabbit, 24 hours after intravenous 20 mg per kg, detection limit
measure: concentration at 24 h

Lookup: Provide one value: measured concentration at 24 h of C=CC(C)(C)c1cc(/C=C/C(=O)c2ccc(O)cc2)c(OC)cc1O [Licochalcone A, licochalcone A]
Found: < 50 ng/mL
